Target: T1, Anti-PSMA Fab (SEQ ID NOs: 19, 20)
T1 construct: Biotinylated and captured on neutravidin coated plates in the phage ELISA; also called 006 PSMA Fab
Test: phage binding ELISA; plate-captured PSMA Fab pre-incubated with PSMA antigen as competitor, anti-M13 HRP detection
Where no end group is shown, it is not given here.
Measure: Anti-PSMA Fab signal in the presence of PSMA
Answers are plain numbers.

// below: answered binders
THKWCIPVWMCEHQ (tested as crude clonal phage supernatant) [Phage-2297]    0.0929
VDKQCRPAWMCEIW (tested as crude clonal phage supernatant) [Phage-2290]    0.0653
NSNWCIPSWMCADI (cysteine pairing not given here; also: displayed on bacteriophage by fusion to pIII, tested as crude clonal phage supernatant) [Phage-2292]    0.0741
MINWCTPAWMCTGF (tested as crude clonal phage supernatant) [Phage-2284]    0.101

Dear colleague, could you please provide Anti-PSMA Fab signal in the presence of PSMA for the binders listed below?
1. VEKWCIPAWMCQQS (tested as crude clonal phage supernatant) [Phage-2291]
2. ELNWCTPPWMCNPM (tested as crude clonal phage supernatant) [Phage-2289]
3. HVKWCTPAWMCVSN (tested as crude clonal phage supernatant) [Phage-2288]

(A)
0.0698
0.0786
0.079
